Each entry below carries its reported Emax.
Biological target: human Farnesoid X receptor ligand-binding domain/Gal4 DNA binding domain chimera (Homo sapiens (Human), UniProt Q96RI1)
Sequence (Q96RI1 262-486, change not shown): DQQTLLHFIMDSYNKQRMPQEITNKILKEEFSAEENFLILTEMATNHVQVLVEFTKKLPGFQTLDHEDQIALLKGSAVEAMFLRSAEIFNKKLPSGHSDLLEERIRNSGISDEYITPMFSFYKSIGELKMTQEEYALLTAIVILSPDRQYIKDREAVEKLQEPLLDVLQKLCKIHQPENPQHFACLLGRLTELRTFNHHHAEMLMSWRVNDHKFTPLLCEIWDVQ
Sequence (P04386 1-147 partner): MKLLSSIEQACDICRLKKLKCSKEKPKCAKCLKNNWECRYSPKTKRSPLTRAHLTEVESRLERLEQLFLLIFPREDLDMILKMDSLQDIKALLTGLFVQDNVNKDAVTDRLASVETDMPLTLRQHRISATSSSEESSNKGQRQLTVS
Test: Cell-based assay of FXR activation (FXR-UAS-bla HEK 293T beta-lactamase reporter)
Settings: HEK-293T; extent of activation relative to GW4064; cellular FXR beta-lactamase reporter assay; read-out: % Efficacy

Recorded results for 3 compounds are shown here.
INSERT INTO assay_data (compound, readout, result_value) VALUES
  ('CS(=O)(=O)NC(=O)c1cc(F)c2nc(N3C[C@@H]4C[C@H]3C[C@H]4OCc3c(-c4c(Cl)cccc4Cl)noc3C3CC3)sc2c1 [Compound I-28]', 'Emax', '122%'),
  ('O=C(O)c1cc([C@@H]2CCOC2)c2nc(N3C[C@@H]4C[C@H]3C[C@H]4OCc3c(-c4c(Cl)cccc4Cl)noc3C3CC3)sc2c1 [Compound I-252]', 'Emax', '107%'),
  ('O=C(NS(=O)(=O)C1CC1)c1cc(F)c2nc(N3C[C@@H]4C[C@H]3C[C@H]4OC(=O)c3c(-c4c(Cl)cccc4Cl)noc3C3CC3)sc2c1 [Compound I-33]', 'Emax', '112%');

Challenge: So what does the record say about Emax for O=C(O)c1cc(F)c(N2C[C@@H]3C[C@H]2C[C@H]3OCc2c(-c3c(Cl)cccc3Cl)noc2C2CC2)cc1F [Compound I-105] ?
Response given: 112%

Challenge: # lookup: Emax of CC(O)CCS(=O)(=O)NC(=O)c1ccc(N2C[C@@H]3C[C@H]2C[C@H]3OCc2c(-c3c(Cl)cccc3Cl)noc2C2CC2)cc1 (stereo partly drawn) [Compound I-217]
Response given: 111%

Challenge: Entry O=C(O)CCCc1ccc(N2C[C@@H]3C[C@H]2C[C@H]3OCc2c(-c3c(Cl)cccc3Cl)noc2C2CC2)c(F)c1 [Compound I-157] : reported Emax = ?
Response given: 100%

Challenge: Which Emax is listed for O=C(O)c1cc(C2CC3(CCOCC3)C2)c2nc(N3C[C@@H]4C[C@H]3C[C@H]4OCc3c(-c4c(Cl)cccc4Cl)noc3C3CC3)sc2c1 [Compound I-257] ?
Response given: 108%

Challenge: May I ask what Emax has been recorded for Cc1cccc(Cl)c1-c1noc(C2CC2)c1CO[C@@H]1C[C@@H]2C[C@H]1CN2c1nc2c(C3CCOCC3)cc(C(=O)O)cc2s1 [Compound I-271] ?
Response given: 108%

Challenge: Need Emax of O=C(O)c1cc(C2CCCC2)c2nc(N3C[C@@H]4C[C@H]3C[C@H]4OCc3c(-c4c(Cl)cccc4Cl)noc3C3CC3)sc2c1 [Compound I-250] , thanks.
Response given: 114%

Challenge: Value lookup for Emax; key = O=C(CCc1ccc(N2C[C@@H]3C[C@H]2C[C@H]3OCc2c(-c3c(Cl)cccc3Cl)noc2C2CC2)c(F)c1)NS(=O)(=O)C1CC1 [Compound I-237]
Response given: 94%

Challenge: Requested read-out: Emax. Entry: O=C(O)c1cc(C2CCOCC2)c2nc(N3C[C@@H]4C[C@H]3C[C@H]4OCc3c(-c4c(F)cccc4Cl)noc3C3CC3)sc2c1 [Compound I-264]
Response given: 105%

Challenge: Value lookup for Emax; key = O=C(O)CCCc1ccc(N2C[C@@H]3C[C@H]2C[C@H]3OCc2c(-c3c(Cl)cccc3Cl)noc2C2CC2)cc1 [Compound I-148]
Response given: 117%
